- System: Human alphaherpesvirus 2
- PROTOCOL: In vitro antiviral activity against Herpes simplex virus type 2
- Assay type: functional, organism-based
QUANTITY NAME: EC50 (nM)
Expressed in nM, but write only the number.

Field request: EC50 | item: [N-]=[N+]=NC(CCl)c1cn([C@H]2C[C@H](O)[C@@H](CO)O2)c(=O)[nH]c1=O (stereo partly specified) 2900

###

- System: Human alphaherpesvirus 3
- PROTOCOL: In vitro antiviral activity against Varicella zoster virus
- Assay type: functional, organism-based
// values below are reported EC50
Expressed in µM, but write only the number.

# annotated cases, reported EC50 shown
Field request: EC50 | item: Nc1nc2c(ncn2COCCO)c(=O)[nH]1 [ACYCLOVIR] 2.6

Field request: EC50 | item: [N-]=[N+]=NC(CCl)c1cn([C@H]2C[C@H](O)[C@@H](CO)O2)c(=O)[nH]c1=O (some centres undefined) 4.5

Field request: EC50 | item: [N-]=[N+]=NC(CI)c1cn(COC(CO)CO)c(=O)[nH]c1=O (centres undefined) 2.4

The record that follows has no EC50 shown yet.
Field request: EC50 | item: [N-]=[N+]=NC(CCl)c1cn([C@@H]2O[C@H](CO)[C@@H](O)[C@@H]2O)c(=O)[nH]c1=O (some centres undefined) 0.08

###

- PROTOCOL: Cytotoxicity against human foreskin fibroblast cell proliferation
- Format: cell-based
- CONDITION SUMMARY: human foreskin fibroblast cells (proliferating)
QUANTITY NAME: IC50

Field request: IC50 | item: [N-]=[N+]=NC(CI)c1cn(CCC(CO)CO)c(=O)[nH]c1=O (stereo unspecified) > 260 µM

###

// values below are reported pEC50
- Test system: Human alphaherpesvirus 1
- PROTOCOL: In vitro antiviral activity against Herpes simplex virus type 1
- Assay type: functional, organism-based
// field semantics: pEC50 = negative decimal log of concentration (mol/L)

Hello, I am looking for reported pEC50 with Human alphaherpesvirus 1 for [N-]=[N+]=NC(CCl)c1cn([C@H]2C[C@H](O)[C@@H](CO)O2)c(=O)[nH]c1=O (some centres not stated) . Could you help? 7.22

The record that follows has no pEC50 shown yet.
Hello, I am looking for reported pEC50 with Human alphaherpesvirus 1 for [N-]=[N+]=NC(CCl)c1cn([C@@H]2O[C@H](CO)[C@@H](O)[C@@H]2O)c(=O)[nH]c1=O (some centres not stated) . Could you help? 6.34
